system: HSV-2 specific CD8+ T cells; assay: CFSE proliferation of peptide exposed PBMC (cell division index); type: cell-based, human; conditions: CFSE stained PBMC; CDI>2 cut-off for proliferation positivity
Let's look at some sequences and their measured CDI (cell division index).
Lab note: record just the number, no unit beside it.

Check out these entries, answers already filled in.
> print(dat)
                            record.sequence                 assay.target               assay.metric  observed.value
1                           PMRARPRGEVRFLHY  HSV-2 specific CD8+ T cells  CDI (cell division index)             8.7
2  HGPGPARAPPPPGGPV (herpes simplex virus 2)  HSV-2 specific CD8+ T cells  CDI (cell division index)             1.4
3  PKASATPATDPARGR (herpes simplex virus 2)  HSV-2 specific CD8+ T cells  CDI (cell division index)             1.6

Now for the sequence whose CDI (cell division index) we want.
Request: CDI (cell division index), test system HSV-2 specific CD8+ T cells, entry ARPRRSASVAGSHGPG (herpes simplex virus 2)
1.8
